assay-system: human β-Secretase (Homo sapiens, UniProt P56817)
Construct: The soluble part of the human β-Secretase (AA 1-AA 460) was cloned
Sequence (P56817 22-460): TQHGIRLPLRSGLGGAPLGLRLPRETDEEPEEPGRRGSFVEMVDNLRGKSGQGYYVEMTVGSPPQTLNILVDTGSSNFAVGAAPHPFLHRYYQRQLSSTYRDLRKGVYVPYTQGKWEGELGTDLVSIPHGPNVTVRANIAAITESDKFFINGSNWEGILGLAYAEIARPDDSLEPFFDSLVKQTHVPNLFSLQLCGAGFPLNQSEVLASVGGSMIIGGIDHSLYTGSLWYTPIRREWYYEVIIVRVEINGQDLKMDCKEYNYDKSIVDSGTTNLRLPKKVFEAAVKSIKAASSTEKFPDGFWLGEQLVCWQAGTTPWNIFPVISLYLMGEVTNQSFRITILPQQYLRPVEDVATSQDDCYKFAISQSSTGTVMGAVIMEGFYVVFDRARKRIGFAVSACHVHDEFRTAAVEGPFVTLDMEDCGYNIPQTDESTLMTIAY
experiment-notes: TR-FRET assay
condition-details: sBACE truncated form, substrate (Europium)CEVNLDAEFK(Qsy7) 100 nM, pH 4.5
Counter-ions that a name gives are not always drawn.
Recorded pIC50 values for a group of molecules are listed next.
Please note pIC50 is a logarithmic value: minus log10 of concentration in mol/L. Answer with that number alone.

{"molecule": "COc1ccc(OS(=O)(=O)C(F)(F)F)c(-c2cccc(C3(c4ccccc4)N=C(N)N(C)C3=O)c2)c1 (centres unmarked) [Example 26, hydrochloride]", "experimental-readout": "pIC50", "test-value": 6.13}

[Q] Find the measured pIC50: item COc1cccc(-c2cccc(C3(c4cccc(OS(=O)(=O)C(F)(F)F)c4)N=C(N)N(C)C3=O)c2)c1 (centres unmarked) [Example 45, hydrochloride] , target or system human β-Secretase (Homo sapiens, UniProt P56817).
[A] 6.59
